# Tested on: BT-474
# Test description: Antitumor activity against human BT474 cells xenografted in BALB/c nu/nu mouse at 100 mg/kg, po bid administered 14 days measured on day 31 relative to control
# Type: functional

[
  {
    "Smiles representation": "CC(C)(C(=O)NCCn1ccc2ncnc(Nc3ccc(Oc4cccc(C(F)(F)F)c4)c(Cl)c3)c21)S(C)(=O)=O",
    "T/C": "43%"
  },
  {
    "Smiles representation": "CS(=O)(=O)CC(=O)NCCn1ccc2ncnc(Nc3ccc(Oc4cccc(C(F)(F)F)c4)c(Cl)c3)c21",
    "T/C": "80%"
  },
  {
    "Smiles representation": "CC(C)(C(=O)NCCn1ccc2ncnc(Nc3ccc(Oc4cccc(Cl)c4)c(Cl)c3)c21)S(C)(=O)=O",
    "T/C": "24%"
  },
  {
    "Smiles representation": "CC(C)(O)CC(=O)NCCn1ccc2ncnc(Nc3ccc(Oc4cccc(C(F)(F)F)c4)c(Cl)c3)c21",
    "T/C": "29%"
  }
]

###

# Tested target: Mitogen-activated protein kinase kinase kinase 5 (Homo sapiens, UniProt Q99683)
# Sequence (Q99683 whole entry): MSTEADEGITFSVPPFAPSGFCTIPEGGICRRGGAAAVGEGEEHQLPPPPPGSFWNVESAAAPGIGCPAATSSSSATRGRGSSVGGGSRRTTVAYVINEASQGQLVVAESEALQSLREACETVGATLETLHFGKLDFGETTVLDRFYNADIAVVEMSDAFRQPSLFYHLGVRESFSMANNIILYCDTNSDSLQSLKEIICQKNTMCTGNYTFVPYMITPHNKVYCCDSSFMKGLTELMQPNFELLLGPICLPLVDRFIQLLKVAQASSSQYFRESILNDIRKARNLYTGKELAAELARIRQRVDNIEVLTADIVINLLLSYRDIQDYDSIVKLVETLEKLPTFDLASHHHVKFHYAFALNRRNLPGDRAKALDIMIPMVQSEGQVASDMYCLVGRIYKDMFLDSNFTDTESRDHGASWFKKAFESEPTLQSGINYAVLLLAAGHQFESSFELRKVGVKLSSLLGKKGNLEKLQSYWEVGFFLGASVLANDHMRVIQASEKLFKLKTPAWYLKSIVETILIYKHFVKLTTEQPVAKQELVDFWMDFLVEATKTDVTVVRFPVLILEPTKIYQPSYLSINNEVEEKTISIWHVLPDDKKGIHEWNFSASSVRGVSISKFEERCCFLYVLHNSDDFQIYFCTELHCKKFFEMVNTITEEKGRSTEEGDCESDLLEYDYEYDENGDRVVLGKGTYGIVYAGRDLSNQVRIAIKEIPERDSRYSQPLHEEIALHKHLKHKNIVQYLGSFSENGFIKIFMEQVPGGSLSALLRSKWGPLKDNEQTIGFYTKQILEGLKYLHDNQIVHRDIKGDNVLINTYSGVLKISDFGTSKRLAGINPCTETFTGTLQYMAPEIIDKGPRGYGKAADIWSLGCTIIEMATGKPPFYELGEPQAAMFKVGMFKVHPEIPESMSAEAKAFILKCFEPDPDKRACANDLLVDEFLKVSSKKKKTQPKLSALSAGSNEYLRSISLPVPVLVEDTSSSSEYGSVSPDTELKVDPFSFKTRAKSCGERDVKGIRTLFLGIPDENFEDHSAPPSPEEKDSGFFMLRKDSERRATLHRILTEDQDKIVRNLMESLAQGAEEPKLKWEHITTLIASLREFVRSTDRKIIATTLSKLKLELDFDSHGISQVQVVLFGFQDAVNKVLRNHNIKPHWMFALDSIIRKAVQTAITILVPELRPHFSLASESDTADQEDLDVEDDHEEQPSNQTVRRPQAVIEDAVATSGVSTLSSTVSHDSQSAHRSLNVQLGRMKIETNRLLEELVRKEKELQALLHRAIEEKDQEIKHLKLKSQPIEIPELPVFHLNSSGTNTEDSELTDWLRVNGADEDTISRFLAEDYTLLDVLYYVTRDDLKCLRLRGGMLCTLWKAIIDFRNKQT
# Test description: Inhibition of N-terminal FLAG-tagged ASK1 expressed in baculovirus after 5 mins by scintillation counter

[
  {
    "Smiles representation": "CC(C)(C(=O)NCCn1ccc2ncnc(Nc3ccc(Oc4cccc(Cl)c4)c(Cl)c3)c21)S(C)(=O)=O.Cc1ccc(S(=O)(=O)O)cc1",
    "Tested target": "Mitogen-activated protein kinase kinase kinase 5 (Homo sapiens, UniProt Q99683)",
    "IC50": "> 10 µM"
  }
]
